Recorded Residual Rate of active substance, after 7 Days for the following molecules
# assay-details: Residual rate of the active substance in monomer solution (HPLC)
# Type: physicochemical
# experimental-conditions: monomer: 2-Ethylhexyl Acrylate; preserved at 25° C. for 7 days
Don't forget the unit after the number, please.

Some entries whose results are on file:
1. COc1ccc(OC)c(C(O)CN)c1 (stereo not shown) = 11 % by weight
2. COc1ccc2c(c1)c(CC(=O)O)c(C)n2C(=O)c1ccc(Cl)cc1 = 100 % by weight

Exercise: Provide measured Residual Rate of active substance, after 7 Days value, entry: O=[N+]([O-])O[C@H]1CO[C@H]2[C@@H]1OC[C@H]2O[N+](=O)[O-] [ISDN, isosorbide dinitrate]
Solution: 100 % by weight

Exercise: Provide measured Residual Rate of active substance, after 7 Days value, entry: CC(C)(C)NCC(O)c1ccccc1Cl (stereo not shown)
Solution: 88 % by weight

###

# assay-details: Solvency of the active substance in monomer (visual inspection)
# Type: physicochemical
# Set-up: key: Excellent: The active substance was not found to have been precipitated in the solution of active substance both immediately after the preparation and after the preservation for 7 days.; Good: The active substance was found to have been precipitated in the solution of active substance immediately after the preparation, but the active substance was not found to have been precipitated in the solution of active substance after the preservation for 7 days.; Poor: The active substance was found to have been precipitated in the solution of active substance both immediately after the preparation and after the preservation for 7 days
# experimental-conditions: monomer: Butyl Methacrylate; 3 parts active substance per 100 parts monomer; 25° C., 7 days
metric-name: Solvency of active substance

1) COc1ccc(OC)c(C(O)CN)c1 (stereo not shown) [DMAE, 2-amino-1-(2′,5′-dimethoxyphenyl)ethanol] = Poor
2) O=[N+]([O-])O[C@H]1CO[C@H]2[C@@H]1OC[C@H]2O[N+](=O)[O-] [ISDN, isosorbide dinitrate] = Excellent
3) CC(C)(C)NCC(O)c1ccccc1Cl (stereo not shown) [TB, tulobuterol] = Excellent
4) COc1ccc2c(c1)c(CC(=O)O)c(C)n2C(=O)c1ccc(Cl)cc1 [IMT, indomethacin] = Poor

###

# assay-details: Solvency of the active substance in monomer (visual inspection)
# Assay type: physicochemical
# Design: key: Excellent: The active substance was not found to have been precipitated in the solution of active substance both immediately after the preparation and after the preservation for 7 days.; Good: The active substance was found to have been precipitated in the solution of active substance immediately after the preparation, but the active substance was not found to have been precipitated in the solution of active substance after the preservation for 7 days.; Poor: The active substance was found to have been precipitated in the solution of active substance both immediately after the preparation and after the preservation for 7 days
# experimental-conditions: monomer: 1-Vinyl-2-Pyrrolidone; 3 parts active substance per 100 parts monomer; 25° C., 7 days
metric-name: Solvency of active substance

1. CC(C)(C)NCC(O)c1ccccc1Cl (stereo not shown) = Excellent
2. COc1ccc2c(c1)c(CC(=O)O)c(C)n2C(=O)c1ccc(Cl)cc1 = Excellent
3. O=[N+]([O-])O[C@H]1CO[C@H]2[C@@H]1OC[C@H]2O[N+](=O)[O-] [ISDN, isosorbide dinitrate] = Excellent
4. COc1ccc(OC)c(C(O)CN)c1 (stereo not shown) = Poor

###

# assay-details: Residual rate of the active substance in monomer solution (HPLC)
# Type: physicochemical
# experimental-conditions: monomer: 2-Ethylhexyl Acrylate; 3 parts per 100 parts monomer
Recorded Residual Rate of active substance, Immediately after Preparation for the following compounds
Return type: number; implicit unit % by weight.

Some entries whose results are on file:
1. CC(C)(C)NCC(O)c1ccccc1Cl (stereo not shown) [TB, tulobuterol] = 100
2. COc1ccc2c(c1)c(CC(=O)O)c(C)n2C(=O)c1ccc(Cl)cc1 [IMT, indomethacin] = 100
3. COc1ccc(OC)c(C(O)CN)c1 (stereo not shown) [DMAE, 2-amino-1-(2′,5′-dimethoxyphenyl)ethanol] = 39

Please turn your attention to the following entry.
Exercise: Provide measured Residual Rate of active substance, Immediately after Preparation value, entry: O=[N+]([O-])O[C@H]1CO[C@H]2[C@@H]1OC[C@H]2O[N+](=O)[O-] [ISDN, isosorbide dinitrate]
Solution: 100

Ref: patent US20120171274A1
